Reference source for all entries: ChEMBL document CHEMBL3885881

- Species: Rattus norvegicus
- experiment_description: DrugMatrix - Regimen: Daily Repeat
- Format: toxicity, organism-based, Sprague-Dawley
- Design: regimen Daily Repeat, gender Male, age 6-8 weeks
- condition_label: in vivo, po, 0 mg/kg, 72 h, tissue Blood, route oral GAVAGE, dose level Control, time 3 day, […]
Form field: ABSOLUTE SEGMENTED NEUTROPHIL (one value per entry).
reported_metric: ABSOLUTE SEGMENTED NEUTROPHIL (CELLS/uL)

INSERT INTO assay_data (molecule, reported_metric, readout_number) VALUES
  ('O=C(Nc1ccc(Cl)c(Cl)c1)c1cc(Cl)cc(Cl)c1O [3,3'',4'',5-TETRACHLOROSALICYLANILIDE]', 'ABSOLUTE SEGMENTED NEUTROPHIL', 1186.67),
  ('Oc1ncnc2[nH]ncc12', 'ABSOLUTE SEGMENTED NEUTROPHIL', 1748.33),
  ('COC(=O)Nc1nc2ccc(C(=O)c3ccccc3)cc2[nH]1', 'ABSOLUTE SEGMENTED NEUTROPHIL', 869.83),
  ('Cc1cccc(C)c1NC(=O)C(C)N (stereo not given) [TOCAINIDE]', 'ABSOLUTE SEGMENTED NEUTROPHIL', 906),
  ('O=C(O)COC(=O)Cc1ccccc1Nc1c(Cl)cccc1Cl', 'ABSOLUTE SEGMENTED NEUTROPHIL', 869.83),
  ('c1ccc2c(c1)Nc1ccccc1S2', 'ABSOLUTE SEGMENTED NEUTROPHIL', 633.67),
  ('CCC(C)(C)C(=O)O[C@H]1C[C@@H](C)C=C2C=C[C@H](C)[C@H](CC[C@@H]3C[C@@H](O)CC(=O)O3)[C@H]21', 'ABSOLUTE SEGMENTED NEUTROPHIL', 535.5),
  ('CC(C)(c1ccc(O)cc1)c1ccc(O)cc1', 'ABSOLUTE SEGMENTED NEUTROPHIL', 1521.67),
  ('CS(=O)(=O)c1ccc(C2=C(c3ccccc3)C(=O)OC2)cc1', 'ABSOLUTE SEGMENTED NEUTROPHIL', 633.67),
  ('CC#C[C@]1(O)CC[C@H]2[C@@H]3CCC4=CC(=O)CCC4=C3[C@@H](c3ccc(N(C)C)cc3)C[C@@]21C', 'ABSOLUTE SEGMENTED NEUTROPHIL', 535.5);

---

- Species: Rattus norvegicus
- experiment_description: DrugMatrix - Regimen: Daily Repeat
- Assay type: toxicity, organism-based, Sprague-Dawley
- Parameters: regimen Daily Repeat, gender Male, age 6-8 weeks
- condition_label: in vivo, po, 0 mg/kg, 72 h, tissue Blood, route oral GAVAGE, dose level Control, time 3 day, vehicle .5 % CMC
reported_metric: NEUTROPHIL

INSERT INTO assay_data (molecule, result) VALUES
  ('CN(C)CCOC(c1ccccc1)c1ccccc1.Cn1c(=O)c2[nH]c(Cl)nc2n(C)c1=O [DIMENHYDRINATE]', '12%'),
  ('NC(=O)CN1CCCC1=O', '8.83%'),
  ('COc1ccc(Cl)cc1C(=O)NCCc1ccc(S(=O)(=O)NC(=O)NC2CCCCC2)cc1 [GLYBURIDE]', '10.83%'),
  ('COc1cc(/C=C/C(=O)O)ccc1O [FERULATE]', '7.17%'),
  ('CCN1CCN(c2cc3c(cc2F)c(=O)c(C(=O)O)cn3C2CC2)CC1 [ENROFLOXACIN]', '18%'),
  ('Nc1ccc(C(=O)O)c(O)c1 [AMINOSALICYLIC ACID]', '10.83%'),
  ('O=C(O)CCc1nc(-c2ccccc2)c(-c2ccccc2)o1 [OXAPROZIN]', '7.17%'),
  ('CCN(CC)CCNC(=O)c1cc(Cl)c(N)cc1OC [METOCLOPRAMIDE]', '18%'),
  ('CC(C)NCC(O)COc1ccc(CC(N)=O)cc1 (stereo unspecified) [ATENOLOL]', '19.83%'),
  ('NC(=O)NC(=O)Cc1ccccc1 [PHENACEMIDE]', '12.83%'),
  ('CC(C)Cc1ccc([C@H](C)C(=O)O)cc1 [DEXIBUPROFEN]', '18.6%');

---

- Organism: Rattus norvegicus
- experiment_description: DrugMatrix - Regimen: Daily Repeat
- Type: toxicity, organism-based, Sprague-Dawley
- Design: regimen Daily Repeat, gender Male, age 6-8 weeks
- condition_label: in vivo, po, 0 mg/kg, 72 h, tissue Plasma, route oral GAVAGE, dose level Control, time 3 day, vehicle .5 % CMC
Decide using LIPASE: a value greater than or equal to 10 u/L is y, a smaller one is n.

INSERT INTO measurements (compound, assigned_category) VALUES
  ('CN(C)CCOC(c1ccccc1)c1ccccc1.Cn1c(=O)c2[nH]c(Cl)nc2n(C)c1=O [DIMENHYDRINATE]', 'n'),
  ('CC(C)(C#N)c1cc(Cn2cncn2)cc(C(C)(C)C#N)c1 [ANASTROZOLE]', 'n'),
  ('Cc1cc2c(s1)Nc1ccccc1N=C2N1CCN(C)CC1 [OLANZAPINE]', 'n'),
  ('NCC(CC(=O)O)c1ccc(Cl)cc1 (configuration not stated) [BACLOFEN]', 'y'),
  ('CC(=O)Nc1ccc2c(c1)Cc1ccccc1-2 [2-ACETYLAMINOFLUORENE]', 'y'),
  ('NC(=O)NC(=O)Cc1ccccc1 [PHENACEMIDE]', 'y'),
  ('O=C(O)CCc1nc(-c2ccccc2)c(-c2ccccc2)o1 [OXAPROZIN]', 'n'),
  ('CCOc1cc(N)c(Cl)cc1C(=O)NCC1CN(Cc2ccc(F)cc2)CCO1 (configuration not stated) [MOSAPRIDE]', 'y'),
  ('CCN1CCCC1CNC(=O)c1cc(S(N)(=O)=O)ccc1OC (configuration not stated) [SULPIRIDE]', 'n');

---

Documented CREATININE across a set of molecules
- Organism: Rattus norvegicus
- experiment_description: DrugMatrix - Regimen: Daily Repeat
- Format: toxicity, organism-based, Sprague-Dawley
- Design: regimen Daily Repeat, gender Male, age 6-8 weeks
- condition_label: in vivo, iv, 0 mg/kg, 120 h, tissue Plasma, dose level Control, time 5 day, vehicle 100 % SALINE
reported_metric: CREATININE (mg/dL)

INSERT INTO results (smiles_code, unit_label, readout_number) VALUES
  ('Cc1c(N)nc([C@H](CC(N)=O)NC[C@H](N)C(N)=O)nc1C(=O)N[C@H](C(=O)N[C@H](C)[C@@H](O)[C@H](C)C(=O)N[C@H](C(=O)NCCc1nc(-c2nc(C(=O)NCCC[S+](C)C)cs2)cs1)[C@@H](C)O)[C@@H](O[C@@H]1O[C@@H](CO)[C@@H](O)[C@H](O)[C@@H]1O[C@H]1O[C@H](CO)[C@@H](O)[C@H](OC(N)=O)[C@@H]1O)c1c[nH]cn1.[Br-]', 'mg/dL', 0.23),
  ('CC(=O)[C@]1(O)Cc2c(O)c3c(c(O)c2[C@@H](O[C@H]2C[C@H](N)[C@H](O)[C@H](C)O2)C1)C(=O)c1ccccc1C3=O', 'mg/dL', 0.23),
  ('COC(=O)C[C@](O)(CCC(C)(C)O)C(=O)O[C@@H]1C(OC)=C[C@]23CCCN2CCc2cc4c(cc2[C@H]13)OCO4', 'mg/dL', 0.18),
  ('CO[C@@]12[C@H](COC(N)=O)C3=C(C(=O)C(C)=C(N)C3=O)N1C[C@@H]1N[C@@H]12', 'mg/dL', 0.22);

---

- Species: Rattus norvegicus
- experiment_description: DrugMatrix - Regimen: Daily Repeat
- Type: toxicity, organism-based, Sprague-Dawley
- Set-up: regimen Daily Repeat, gender Male, age 6-8 weeks
- condition_label: in vivo, po, 1500 mg/kg, 72 h, tissue Plasma, route oral GAVAGE, dose level High, time 3 day, vehicle .5 % CMC
Measured BLOOD UREA NITROGEN, listed per entry.
reported_metric: BLOOD UREA NITROGEN (mg/dL)

INSERT INTO results (compound, reported_metric, readout_number) VALUES
  ('O=C(O)CCc1nc(-c2ccccc2)c(-c2ccccc2)o1 [OXAPROZIN]', 'BLOOD UREA NITROGEN', 17.33),
  ('COc1ccc(Cl)cc1C(=O)NCCc1ccc(S(=O)(=O)NC(=O)NC2CCCCC2)cc1 [GLYBURIDE]', 'BLOOD UREA NITROGEN', 12),
  ('COc1cc(/C=C/C(=O)O)ccc1O [FERULATE]', 'BLOOD UREA NITROGEN', 13.67),
  ('CC[C@H]1OC(=O)[C@H](C)[C@@H](O[C@H]2C[C@@](C)(OC)[C@@H](O)[C@H](C)O2)[C@H](C)[C@@H](O[C@@H]2O[C@H](C)C[C@H](N(C)C)[C@H]2O)[C@](C)(O)C[C@@H](C)C(=O)[C@H](C)[C@@H](O)[C@]1(C)O [ERYTHROMYCIN]', 'BLOOD UREA NITROGEN', 9.33),
  ('Cc1ccc(S(=O)(=O)NC(=O)NN2CCCCCC2)cc1 [TOLAZAMIDE]', 'BLOOD UREA NITROGEN', 17.67);
